# target: T1, human TNFR2 on the cell membrane (human, UniProt P20333 23-461)
# T1 construct: whole, on cells; One molecule for all cell formats; also called TNFR2-CHO cells; CHO-TNFR2
# T1 sequence (looked up): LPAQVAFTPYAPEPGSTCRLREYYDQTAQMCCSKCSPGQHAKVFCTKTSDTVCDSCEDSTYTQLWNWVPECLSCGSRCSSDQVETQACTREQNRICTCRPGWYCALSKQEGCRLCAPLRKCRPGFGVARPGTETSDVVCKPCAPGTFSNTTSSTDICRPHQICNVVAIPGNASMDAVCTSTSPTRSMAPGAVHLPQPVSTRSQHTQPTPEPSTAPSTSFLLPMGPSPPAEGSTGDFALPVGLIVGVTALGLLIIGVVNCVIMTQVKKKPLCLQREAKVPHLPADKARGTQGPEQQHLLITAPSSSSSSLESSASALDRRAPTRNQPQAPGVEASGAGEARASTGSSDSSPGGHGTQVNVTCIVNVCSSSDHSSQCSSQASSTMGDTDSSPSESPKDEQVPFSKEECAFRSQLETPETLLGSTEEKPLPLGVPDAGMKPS
# experiment-summary: flow cytometry on TNFR2-CHO cells
Quick reference for EC50 among some binders
result-type: EC50 (nM)

binder	unit-annotation	result-number
anti-human TNFR2 mouse monoclonal antibody 27F6 (antibody, V domains shown) VH: EVQLQQSGTVLARPGASVKMSCKTSGYTFTSYWMHWVKQRPGQGLEWIGTIYPGNSDTSYNQKFKGKAKLTAVTSASTAYMELNSLTNEDSAVFYCTRENLLLRSYFFDYWGQGTTLTVSS VL: DIVMTQSPASLAVSLGQRATISCKASQSVDYDGDSYLNWYQQKPGQPPKLLIYAASNLPSGIPARFSGSGSGTDFTLNIHPVEEEDAATYYCQQSNEDPRTFGGGTKLEIK	nM	1.25
anti-human TNFR2 mouse monoclonal antibody 12E12 (antibody, V domains shown) VH: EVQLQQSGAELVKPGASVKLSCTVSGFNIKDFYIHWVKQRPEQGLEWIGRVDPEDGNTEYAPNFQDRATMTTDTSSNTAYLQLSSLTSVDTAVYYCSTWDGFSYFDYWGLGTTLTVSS VL: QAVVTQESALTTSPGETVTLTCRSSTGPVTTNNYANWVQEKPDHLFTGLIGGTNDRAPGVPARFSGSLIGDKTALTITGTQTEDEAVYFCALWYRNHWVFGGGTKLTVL	nM	0.986
